Assignment: determine reported inhibition at 0.01 µM for the given compounds.
- Test system: Human Breast Adenocarcinoma Cell Line MDA-MB-231
- experiment_description: Drug cytotoxicity testing (viable cell count, trypan blue exclusion, cell growth inhibition)
- Assay type: cell-based
- study_conditions: Homo sapiens, MDA-MB-231, 48 h, compound alone, final concentration 10^-8 mol/L; working solutions in MEM with 5% FBS; two days; read-out: cell growth inhibition
Unit % implied. Number only.

Measured inhibition at 0.01 µM, CC1=C(/C=C/C(C)=C/C=C/C(C)=C/C(=O)N[C@@H](CCS(=O)(=O)O)C(N)=O)C(C)(C)CCC1 : 48.7

Value of measured inhibition at 0.01 µM for the entry COC(=O)[C@H](CCS(=O)(=O)O)NC(=O)/C=C(C)/C=C/C=C(C)/C=C/C1=C(C)CCCC1(C)C : 38.2

Sample CCOC(=O)[C@H](CS(=O)(=O)O)NC(=O)\C=C(C)/C=C/C=C(C)/C=C/C1=C(C)CCCC1(C)C ; inhibition at 0.01 µM observed: 46.3

Record summary for COC(=O)[C@H](CS(=O)(=O)O)NC(=O)\C=C(C)/C=C/C=C(C)/C=C/C1=C(C)CCCC1(C)C : reported inhibition at 0.01 µM = 44.1

Sample CC1=C(/C=C/C(C)=C/C=C/C(C)=C\C(=O)N[C@@H](CS(=O)(=O)O)C(=O)OC(C)C)C(C)(C)CCC1 ; inhibition at 0.01 µM observed: 47

Value of measured inhibition at 0.01 µM for the entry CCOC(=O)[C@H](CCS(=O)(=O)O)NC(=O)\C=C(C)/C=C/C=C(C)/C=C/C1=C(C)CCCC1(C)C : 55.4

GET /value?item= CC1=C(/C=C/C(C)=C/C=C/C(C)=C\C(=O)N[C@@H](CS(=O)(=O)O)C(N)=O)C(C)(C)CCC1 [compound II-1f, N-(13-cis-retinoyl)-L-cysteic acid amide] &field=inhibition at 0.01 µM returns 49.8

Entry under test: CCOC(=O)[C@H](CS(=O)(=O)O)NC(=O)/C=C(C)/C=C/C=C(C)/C=C/C1=C(C)CCCC1(C)C . Its inhibition at 0.01 µM was 44.2

Just so you know, measured inhibition at 0.01 µM for CC1=C(/C=C/C(C)=C/C=C/C(C)=C/C(=O)N[C@@H](CS(=O)(=O)O)C(=O)N(C)C)C(C)(C)CCC1 came out at 39.6

Record CCCCOC(=O)[C@H](CS(=O)(=O)O)NC(=O)/C=C(C)/C=C/C=C(C)/C=C/C1=C(C)CCCC1(C)C . Reported inhibition at 0.01 µM: 49.2

Memo: CC1=C(/C=C/C(C)=C/C=C/C(C)=C/C(=O)N[C@@H](CS(=O)(=O)O)C(N)=O)C(C)(C)CCC1 , reported inhibition at 0.01 µM: 48.6

inhibition at 0.01 µM in this record for CCCCOC(=O)[C@H](CS(=O)(=O)O)NC(=O)\C=C(C)/C=C/C=C(C)/C=C/C1=C(C)CCCC1(C)C : 50.7

Sure, the documented inhibition at 0.01 µM for CC1=C(/C=C/C(C)=C/C=C/C(C)=C/C(=O)N[C@@H](CS(=O)(=O)O)C(=O)OC(C)C)C(C)(C)CCC1 is 46.9

###

- Tested on: Human Breast Adenocarcinoma Cell Line MDA-MB-231
- experiment_description: Drug cytotoxicity testing (viable cell count, trypan blue exclusion, cell growth inhibition)
- Type: cell-based
- study_conditions: Homo sapiens, MDA-MB-231, 48 h, compound alone, final concentration 10^-7 mol/L; working solutions in MEM with 5% FBS; two days; read-out: cell growth inhibition
# label = Condition met if inhibition at 0.1 µM >= 50% else Condition not met

Challenge: Is it the case that CCOC(=O)[C@H](CCS(=O)(=O)O)NC(=O)\C=C(C)/C=C/C=C(C)/C=C/C1=C(C)CCCC1(C)C has inhibition at 0.1 µM reaching or exceeding 50%?
Response given: Condition met

Challenge: Hi, just wondering whether COC(=O)[C@H](CS(=O)(=O)O)NC(=O)/C=C(C)/C=C/C=C(C)/C=C/C1=C(C)CCCC1(C)C shows inhibition at 0.1 µM of 50% or higher.
Response given: Condition not met

Challenge: Given COC(=O)[C@H](CS(=O)(=O)O)NC(=O)\C=C(C)/C=C/C=C(C)/C=C/C1=C(C)CCCC1(C)C , state whether its inhibition at 0.1 µM is at least 50%.
Response given: Condition not met

Challenge: Hello, I need to know if CCCCOC(=O)[C@H](CS(=O)(=O)O)NC(=O)/C=C(C)/C=C/C=C(C)/C=C/C1=C(C)CCCC1(C)C has measured inhibition at 0.1 µM not below 50%. Thanks!
Response given: Condition met

Challenge: hey, is inhibition at 0.1 µM for this one >= 50%? CCCOC(=O)[C@H](CS(=O)(=O)O)NC(=O)\C=C(C)/C=C/C=C(C)/C=C/C1=C(C)CCCC1(C)C
Response given: Condition met

Challenge: Textbook exercise: given the entry CC1=C(/C=C/C(C)=C/C=C/C(C)=C/C(=O)N[C@@H](CS(=O)(=O)O)C(N)=O)C(C)(C)CCC1 , state whether its inhibition at 0.1 µM is greater than or equal to 50%.
Response given: Condition met

Challenge: Given CC1=C(/C=C/C(C)=C/C=C/C(C)=C/C(=O)N[C@@H](CS(=O)(=O)O)C(=O)N(C)C)C(C)(C)CCC1 , state whether its inhibition at 0.1 µM is at least 50%.
Response given: Condition not met

Challenge: Evaluate CCCOC(=O)[C@H](CS(=O)(=O)O)NC(=O)/C=C(C)/C=C/C=C(C)/C=C/C1=C(C)CCCC1(C)C : inhibition at 0.1 µM at minimum 50%?
Response given: Condition met

Challenge: For this molecule, is measured inhibition at 0.1 µM 50% or higher? CC1=C(/C=C/C(C)=C/C=C/C(C)=C\C(=O)N[C@@H](CS(=O)(=O)O)C(N)=O)C(C)(C)CCC1 [compound II-1f, N-(13-cis-retinoyl)-L-cysteic acid amide]
Response given: Condition met

Challenge: Is the recorded value of inhibition at 0.1 µM equal to or greater than 50% for this molecule? CC1=C(/C=C/C(C)=C/C=C/C(C)=C/C(=O)N[C@@H](CCS(=O)(=O)O)C(N)=O)C(C)(C)CCC1
Response given: Condition met

Challenge: Test whether the molecule CCOC(=O)[C@H](CS(=O)(=O)O)NC(=O)/C=C(C)/C=C/C=C(C)/C=C/C1=C(C)CCCC1(C)C records inhibition at 0.1 µM of 50% or higher.
Response given: Condition not met

###

- Tested on: Human Breast Adenocarcinoma Cell Line MDA-MB-231
- experiment_description: Drug cytotoxicity testing (viable cell count, trypan blue exclusion, cell growth inhibition)
- Type: cell-based
- study_conditions: Homo sapiens, MDA-MB-231, 48 h, compound alone, final concentration 10^-8 mol/L; working solutions in MEM with 5% FBS; two days; read-out: cell growth inhibition
measure_name: inhibition at 0.01 µM (%)
Give the quantity in %, number only.

The measured inhibition at 0.01 µM associated with CNC(=O)[C@H](CS(=O)(=O)O)NC(=O)/C=C(C)/C=C/C=C(C)/C=C/C1=C(C)CCCC1(C)C reads 35.9

Record summary for COC(=O)[C@H](CS(=O)(=O)O)NC(=O)/C=C(C)/C=C/C=C(C)/C=C/C1=C(C)CCCC1(C)C : reported inhibition at 0.01 µM = 45.6

// CCCOC(=O)[C@H](CS(=O)(=O)O)NC(=O)/C=C(C)/C=C/C=C(C)/C=C/C1=C(C)CCCC1(C)C : inhibition at 0.01 µM value = 50.7

Entry CCCOC(=O)[C@H](CS(=O)(=O)O)NC(=O)\C=C(C)/C=C/C=C(C)/C=C/C1=C(C)CCCC1(C)C — recorded inhibition at 0.01 µM = 50.4

###

Kindly state inhibition at 0.1 µM for each of the entries shown.
- Tested on: Human Breast Adenocarcinoma Cell Line MDA-MB-231
- experiment_description: Drug cytotoxicity testing (viable cell count, trypan blue exclusion, cell growth inhibition)
- Format: cell-based
- study_conditions: Homo sapiens, MDA-MB-231, 48 h, compound alone, final concentration 10^-7 mol/L; working solutions in MEM with 5% FBS; two days; read-out: cell growth inhibition
Give the value, in units of %, as a plain number.

Lab entry: Human Breast Adenocarcinoma Cell Line MDA-MB-231 assay, molecule CCOC(=O)[C@H](CS(=O)(=O)O)NC(=O)\C=C(C)/C=C/C=C(C)/C=C/C1=C(C)CCCC1(C)C , inhibition at 0.1 µM = 49.1

Reading of inhibition at 0.1 µM for COC(=O)[C@H](CCS(=O)(=O)O)NC(=O)/C=C(C)/C=C/C=C(C)/C=C/C1=C(C)CCCC1(C)C with Human Breast Adenocarcinoma Cell Line MDA-MB-231: 49

With Human Breast Adenocarcinoma Cell Line MDA-MB-231 as the test system, CC1=C(/C=C/C(C)=C/C=C/C(C)=C\C(=O)N[C@@H](CS(=O)(=O)O)C(=O)OC(C)C)C(C)(C)CCC1 showed inhibition at 0.1 µM of 50.4
